# System: T47D
# experiment-summary: NCI tumour cell line growth inhibition, 48 h
Calls of active or inactive are those of the source. Cut-off read from the data, not from the text of the source: active = GI50 up to about 1.1 µM and inactive = higher.
measured-parameter: GI50

Quick note, GI50 for `N#Cc1nc2ccccc2nc1N1CCN(c2ccc([N+](=O)[O-])cc2)CC1` landed at > 100 µM (inactive)

Quick note, GI50 for `CC(=O)Nc1ncc(Sc2ccccc2C(=O)O)s1` landed at > 100 µM (inactive)

Quick note, GI50 for `CCOC(=O)c1c(NS(=O)(=O)c2ccc(C)cc2)sc2c1CCCC2` landed at 43.3 µM (inactive)

Quick note, GI50 for `CN(CCc1ccc(Br)cc1)CCN1CCCCC1` landed at 39.7 µM (inactive)

Quick note, GI50 for COc1cc(C2SCC(=O)N2c2ccc(-c3ccc(-n4c(-c5ccccc5)nc5ccccc5c4=O)cc3)cc2)ccc1O (stereo unspecified) landed at 14.4 µM (inactive)

Quick note, GI50 for `CCOC(=O)/C=C/[C@@H](CC)O[Si](C(C)C)(C(C)C)C(C)C` landed at > 100 µM (inactive)
